Attribution: patent US20180193423A1

# targetSystem: T1, VPAC1 receptor (UniProt P32241 31-457, limits assumed)
# T1 sequence (looked up): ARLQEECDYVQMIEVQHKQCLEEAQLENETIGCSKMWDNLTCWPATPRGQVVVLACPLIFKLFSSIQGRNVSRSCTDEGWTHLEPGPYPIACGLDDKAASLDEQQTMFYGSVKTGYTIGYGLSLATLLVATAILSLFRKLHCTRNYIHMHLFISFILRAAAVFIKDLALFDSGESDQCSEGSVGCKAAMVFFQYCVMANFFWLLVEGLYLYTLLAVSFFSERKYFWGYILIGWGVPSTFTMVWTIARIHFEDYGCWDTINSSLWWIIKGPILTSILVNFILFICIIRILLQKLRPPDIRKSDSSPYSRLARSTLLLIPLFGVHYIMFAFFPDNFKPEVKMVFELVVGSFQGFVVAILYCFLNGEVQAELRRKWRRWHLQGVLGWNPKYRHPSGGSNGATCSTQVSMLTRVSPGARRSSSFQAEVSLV
# assayMethodText: cell-based or functional assay
Where no end group is shown, it is not given here. [ ]: non-standard residue; d: D form. β3hT = C[C@@H](O)[C@H](N)CC(=O)O; β3hN = NC(=O)C[C@H](N)CC(=O)O; β3hL = CC(C)C[C@H](N)CC(=O)O; β3hK = NCCCC[C@H](N)CC(=O)O; β3hV = CC(C)[C@H](N)CC(=O)O; β3hD = NC(CC(=O)O)CC(=O)O; β3hS = N[C@@H](CO)CC(=O)O
readoutKind: EC 50 vpac1 (Molar), cell-based cAMP assay (µM)

A: H[dF][β3hD]AVF[β3hT]DNY[β3hT]RLR[β3hK]QLA[β3hV]KKY[β3hL]NAI[β3hL]N (not fully specified (C-terminus); printed as HfdAVFtDNYtRLRkQLAvKKYlNAIlN) [LBT-V130]
B: H[β3hS]DA[β3hV]FTD[β3hN]Y[β3hT]RLR[β3hK]QLA[β3hV]KKY[β3hL]NAI[β3hL]N (not fully specified (C-terminus); printed as HsDAvFTDnYtRLRkQLAvKKYlNAIlN) [LBT-V106]
C: H[dF]DAVFTDNY[β3hT]RLR[β3hK]QLA[β3hV]KKY[β3hL]NAI[β3hL]N (not fully specified (C-terminus); printed as HfDAVFTDNYtRLRkQLAvKKYlNAIlN) [LBT-V126]
D: H[β3hS]DA[β3hV]FTDNY[β3hT]RLR[β3hK]QLA[β3hV]KKY[β3hL]NAI[β3hL]N (not fully specified (C-terminus); printed as HsDAvFTDNYtRLRkQLAvKKYlNAIlN) [LBT-V105]
In: With the 4 binders above, produce a list ordered by ascending EC 50 vpac1 (Molar), cell-based cAMP assay. State the ranking by listing the labels in the requested order.
Out: D, A, B, C
